- System: 43 cancer cell lines and one normal cell line
- assay_explanation: In vitro cell viability assay (intracellular ATP, 72 hour)
- Assay type: cell-based
- experimental_setup: SK-MEL-5 (Melanoma); 10 μM
Kindly state % Cell growth for each of the entries shown.
# output: bare number, implied unit %

stdin: Specify % Cell growth for CC(C)=CCC[C@H](CO)[C@@H]1CC[C@@H](C)c2c1cc(C)c(O)c2O [Compound 1, 7,8,18-trihydroxyserrulat-14-ene] , system 43 cancer cell lines and one normal cell line.
stdout: −96

stdin: Specify % Cell growth for CC(C)=CCC[C@H](C)[C@@H]1CC[C@@H](C)c2c1cc(C)c(O)c2O [Compound 4, 7,8-dihydroxyserrulat-14-ene] , system 43 cancer cell lines and one normal cell line.
stdout: 88

stdin: Specify % Cell growth for CC(C)=CCC[C@@H]1C(O)Oc2c(C)cc(O)c3c2[C@H]1CC[C@H]3C (stereo partly shown) [Compound 2, 5,18-epoxyserrulat-14-en-8,18-diol] , system 43 cancer cell lines and one normal cell line.
stdout: 95

stdin: Specify % Cell growth for CC(C)=CCC[C@@H]1COc2c(C)cc(O)c3c2[C@H]1CC[C@H]3C [Compound 3, 5,18-epoxy-8-hydroxyserrulat-14-ene] , system 43 cancer cell lines and one normal cell line.
stdout: 118

These data points were gathered from patent US11331299B2.
